- System: HCV 1a-H77 subgenomic replicon
- assayNotes: microbe, parasite or virus in culture
- Format: cell-based, HCV genotype 1a
- conditionLabel: Hepatitis C virus, stable replicon, strain 1a H77, 5% FBS; read-out: 1a H77 5% FBS EC50
pEC50: −log10 of the molar value.
quantity: pEC50

[[record]]
compound = "CS(=O)(=O)N(CCCC(F)(F)F)c1cc2oc(-c3ccc(F)cc3)c(-c3ncc[nH]3)c2cc1C1CC1"
testedsystem = "HCV 1a-H77 subgenomic replicon"
quantity = "pEC50"
reportedvalue = 7.63

[[record]]
compound = "CC(O)CN(c1cc2oc(-c3ccc(F)cc3)c(-c3ncc[nH]3)c2cc1C1CC1)S(C)(=O)=O (stereo not drawn)"
testedsystem = "HCV 1a-H77 subgenomic replicon"
quantity = "pEC50"
reportedvalue = 6.80

[[record]]
compound = "CS(=O)(=O)N(CCCN1CCCCC1)c1cc2oc(-c3ccc(F)cc3)c(C3=NOCCN3)c2cc1C1CC1"
testedsystem = "HCV 1a-H77 subgenomic replicon"
quantity = "pEC50"
reportedvalue = 7.35

[[record]]
compound = "CS(=O)(=O)N(CCCS(N)(=O)=O)c1cc2oc(-c3ccc(F)cc3)c(-c3ncc[nH]3)c2cc1C1CC1"
testedsystem = "HCV 1a-H77 subgenomic replicon"
quantity = "pEC50"
reportedvalue = 7.92

[[record]]
compound = "CC(=O)CCCCN(c1cc2oc(-c3ccc(F)cc3)c(-c3ncc[nH]3)c2cc1C1CC1)S(C)(=O)=O"
testedsystem = "HCV 1a-H77 subgenomic replicon"
quantity = "pEC50"
reportedvalue = 8.22

[[record]]
compound = "CS(=O)(=O)N(CCCCO)c1cc2oc(-c3ccc(F)cc3)c(C3=NOCN3)c2cc1C1CC1"
testedsystem = "HCV 1a-H77 subgenomic replicon"
quantity = "pEC50"
reportedvalue = 8.42

[[record]]
compound = "CS(=O)(=O)CCCN(c1cc2oc(-c3ccc(F)cc3)c(C3=NOCCN3)c2cc1C1CC1)S(C)(=O)=O"
testedsystem = "HCV 1a-H77 subgenomic replicon"
quantity = "pEC50"
reportedvalue = 7.84

[[record]]
compound = "CS(=O)(=O)CCCCN(c1cc2oc(-c3ccc(F)cc3)c(C3=NOCN3)c2cc1C1CC1)S(C)(=O)=O"
testedsystem = "HCV 1a-H77 subgenomic replicon"
quantity = "pEC50"
reportedvalue = 8.39

[[record]]
compound = "CS(=O)(=O)CCCCN(c1cc2oc(-c3ccc(F)cc3)c(-c3ncc[nH]3)c2cc1C1CC1)S(C)(=O)=O"
testedsystem = "HCV 1a-H77 subgenomic replicon"
quantity = "pEC50"
reportedvalue = 8.08

[[record]]
compound = "CS(=O)(=O)N(CCO)c1cc2oc(-c3ccc(F)cc3)c(C3=NOCCN3)c2cc1C1CC1"
testedsystem = "HCV 1a-H77 subgenomic replicon"
quantity = "pEC50"
reportedvalue = 7.58

[[record]]
compound = "CS(=O)(=O)N(CCCCC(=O)O)c1cc2oc(-c3ccc(F)cc3)c(-c3ncc[nH]3)c2cc1C1CC1"
testedsystem = "HCV 1a-H77 subgenomic replicon"
quantity = "pEC50"
reportedvalue = 7.67

[[record]]
compound = "CS(=O)(=O)N(CCC(O)CO)c1cc2oc(-c3ccc(F)cc3)c(-c3ncc[nH]3)c2cc1C1CC1 (stereo not drawn)"
testedsystem = "HCV 1a-H77 subgenomic replicon"
quantity = "pEC50"
reportedvalue = 7.84

[[record]]
compound = "CC(C)=CCCN(c1cc2oc(-c3ccc(F)cc3)c(-c3ncc[nH]3)c2cc1C1CC1)S(C)(=O)=O"
testedsystem = "HCV 1a-H77 subgenomic replicon"
quantity = "pEC50"
reportedvalue = 7.31

[[record]]
compound = "CS(=O)(=O)N(CCCC(=O)O)c1cc2oc(-c3ccc(F)cc3)c(C3=NOCN3)c2cc1C1CC1"
testedsystem = "HCV 1a-H77 subgenomic replicon"
quantity = "pEC50"
reportedvalue = 6.96

[[record]]
compound = "CC(C)(C)[Si](C)(C)OCCCCN(c1cc2oc(-c3ccc(F)cc3)c(-c3ncc[nH]3)c2cc1C1CC1)S(C)(=O)=O"
testedsystem = "HCV 1a-H77 subgenomic replicon"
quantity = "pEC50"
reportedvalue = 6.67

